So I've got a bunch of molecules here, and I need their EC50 values.
TEST_SYSTEM: TLR8 (Homo sapiens)
Construct: host or cells: HEK293 (HEK-BLUE-hTLR8)
Sequence (Q9NR97 27-1041): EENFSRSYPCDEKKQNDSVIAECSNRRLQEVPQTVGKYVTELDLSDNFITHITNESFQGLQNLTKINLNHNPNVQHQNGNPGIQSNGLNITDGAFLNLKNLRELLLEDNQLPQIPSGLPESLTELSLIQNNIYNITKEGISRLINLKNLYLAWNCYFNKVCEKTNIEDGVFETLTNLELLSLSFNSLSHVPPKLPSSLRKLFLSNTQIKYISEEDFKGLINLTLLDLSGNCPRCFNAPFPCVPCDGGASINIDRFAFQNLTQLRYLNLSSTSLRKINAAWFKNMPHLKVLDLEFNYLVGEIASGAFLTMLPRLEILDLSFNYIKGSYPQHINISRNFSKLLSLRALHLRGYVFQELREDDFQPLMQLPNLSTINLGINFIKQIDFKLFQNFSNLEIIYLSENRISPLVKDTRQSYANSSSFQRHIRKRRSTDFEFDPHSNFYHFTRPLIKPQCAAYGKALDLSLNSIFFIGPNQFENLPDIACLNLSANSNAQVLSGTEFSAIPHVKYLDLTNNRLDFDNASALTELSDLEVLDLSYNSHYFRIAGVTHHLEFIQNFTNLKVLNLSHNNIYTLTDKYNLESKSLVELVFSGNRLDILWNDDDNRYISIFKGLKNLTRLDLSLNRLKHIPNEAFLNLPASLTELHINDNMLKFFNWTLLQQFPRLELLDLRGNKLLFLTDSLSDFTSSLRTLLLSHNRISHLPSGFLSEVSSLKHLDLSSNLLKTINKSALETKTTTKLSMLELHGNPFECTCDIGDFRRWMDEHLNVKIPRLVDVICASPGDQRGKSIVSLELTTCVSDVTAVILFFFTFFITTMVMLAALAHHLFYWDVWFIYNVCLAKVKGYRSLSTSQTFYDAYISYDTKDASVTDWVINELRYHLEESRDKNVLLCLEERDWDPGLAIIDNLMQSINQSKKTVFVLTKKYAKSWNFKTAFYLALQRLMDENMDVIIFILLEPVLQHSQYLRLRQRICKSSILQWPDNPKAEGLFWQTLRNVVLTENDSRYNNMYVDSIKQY
ASSAY_DETAILS: HEK-BLUE-hTLR8 cell SEAP reporter assay (Quanti-Blue)
Type: cell-based
RUN_PARAMETERS: HEK-BLUE-hTLR8 cells, 0.5 nM to 15 µM, 24 hours

## Task Kindly state the measured EC50 obtained for "CCCN(CCO)C(=O)C1=Cc2ccc(C3(C(=O)NCc4ccc(N)cc4)CC3)cc2N=C(N)C1" with TLR8 (Homo sapiens).
## Result < 250 nM

## Task Kindly state the measured EC50 obtained for "CCCN(CCC)C(=O)C1=Cc2ccc(C3(C(=O)Nc4cncc(CN)c4)CC3)cc2N=C(N)C1" with TLR8 (Homo sapiens).
## Result < 250 nM

## Task Kindly state the measured EC50 obtained for "CCCN(OCC)C(=O)C1=Cc2ccc(C3(C(=O)Nc4cnc5c(c4)CN(C(=O)CCOCCOCCOCCOCCOCCOCCNC(=O)CCN4C(=O)C=CC4=O)CC5)CC3)cc2N=C(N)C1" with TLR8 (Homo sapiens).
## Result 250 to 1000 nM

## Task Kindly state the measured EC50 obtained for "CCCN(CCO)C(=O)C1=Cc2ccc(C3(C(=O)Nc4cnc5c(c4)CN(C(=O)CCOCCOCCNC(=O)[C@H](CCCNC(N)=O)NC(=O)[C@@H](NC(=O)CCCCCN4C(=O)C=CC4=O)C(C)C)CC5)CC3)cc2N=C(N)C1" with TLR8 (Homo sapiens).
## Result 250 to 1000 nM

## Task Kindly state the measured EC50 obtained for "CCCN(CCO)C(=O)C1=Cc2ccc(C3(C(=O)Nc4cnc5c(c4)CN(C(=O)CCOCCOCCOCCOCCOCCOCCNC(=O)[C@H](CCCNC(N)=O)NC(=O)[C@@H](NC(=O)CCCCCN4C(=O)C=CC4=O)C(C)C)CC5)CC3)cc2N=C(N)C1" with TLR8 (Homo sapiens).
## Result 250 to 1000 nM

## Task Kindly state the measured EC50 obtained for "CCCN(CCO)C(=O)C1=Cc2c(F)cc(C3(C(=O)Nc4cnc5c(c4)CNCC5)CC3)cc2N=C(N)C1" with TLR8 (Homo sapiens).
## Result 250 to 1000 nM

## Task Kindly state the measured EC50 obtained for "CCCN(CCO)C(=O)C1=Cc2ccc(C3(C(=O)Nc4cncc(N)c4)CC3)cc2N=C(N)C1" with TLR8 (Homo sapiens).
## Result 250 to 1000 nM

## Task Kindly state the measured EC50 obtained for "CCCN(CCO)C(=O)C1=Cc2ccc(C3(C(=O)Nc4cnc5c(c4)CN(C(=O)CCOCCOCCNC(=O)OCc4ccc(NC(=O)[C@H](CCCNC(N)=O)NC(=O)[C@@H](NC(=O)CCCCCN6C(=O)C=CC6=O)C(C)C)cc4)CC5)CC3)cc2N=C(N)C1" with TLR8 (Homo sapiens).
## Result 250 to 1000 nM

## Task Kindly state the measured EC50 obtained for "CCCN(CCO)C(=O)C1=Cc2ccc(C3(C(=O)Nc4cnc5c(c4)CN(C(=O)OCc4ccc(NC(=O)[C@H](CCCNC(N)=O)NC(=O)[C@@H](NC(=O)Cc6ccc(N7C(=O)C=CC7=O)cc6)C(C)C)cc4)CC5)CC3)cc2N=C(N)C1" with TLR8 (Homo sapiens).
## Result 250 to 1000 nM

## Task Kindly state the measured EC50 obtained for "CCCN(CCC)C(=O)C1=Cc2ccc(C3(C(=O)Nc4cnc5c(c4)CNCC5)CC3)cc2N=C(N)C1" with TLR8 (Homo sapiens).
## Result < 250 nM

## Task Kindly state the measured EC50 obtained for "CCCN(CCO)C(=O)C1=Cc2ccc(C3(C(=O)Nc4cncc(CN)c4)CC3)cc2N=C(N)C1" with TLR8 (Homo sapiens).
## Result < 250 nM

## Task Kindly state the measured EC50 obtained for "CCCN(CCO)C(=O)C1=Cc2ccc(C3(C(=O)Nc4cnc5c(c4)CN(C(=O)OCc4ccc(NC(=O)CCOCCOCCNC(=O)CCN6C(=O)C=CC6=O)cc4)CC5)CC3)cc2N=C(N)C1" with TLR8 (Homo sapiens).
## Result 250 to 1000 nM

## Task Kindly state the measured EC50 obtained for "CCCN(CCO)C(=O)C1=Cc2ccc(C3(C(=O)Nc4cnc5c(c4)CN(C(=O)OCc4ccc(O[C@@H]6O[C@H](C(=O)O)[C@@H](O)[C@H](O)[C@H]6O)c(NC(=O)CNC(=O)CCCCCN6C(=O)C=CC6=O)c4)CC5)CC3)cc2N=C(N)C1" with TLR8 (Homo sapiens).
## Result < 250 nM

## Task Kindly state the measured EC50 obtained for "CCCN(CCO)C(=O)C1=Cc2c(F)cc(C3(C(=O)Nc4cncc(CNC(=O)CNC(=O)CCOCCOCCNC(=O)CN5C(=O)C=CC5=O)c4)CC3)cc2N=C(N)C1" with TLR8 (Homo sapiens).
## Result 250 to 1000 nM

## Task Kindly state the measured EC50 obtained for "CCCN(CCC)C(=O)C1=Cc2c(F)cc(C3(C(=O)Nc4cncc(CN)c4)CC3)cc2N=C(N)C1" with TLR8 (Homo sapiens).
## Result < 250 nM

## Task Kindly state the measured EC50 obtained for "CCCN(CCO)C(=O)C1=Cc2ccc(C3(C(=O)Nc4cnc5c(c4)CN(C(=O)[C@H](CCCNC(N)=O)NC(=O)[C@@H](NC(=O)CCCCCN4C(=O)C=CC4=O)C(C)C)CC5)CC3)cc2N=C(N)C1" with TLR8 (Homo sapiens).
## Result 250 to 1000 nM

## Task Kindly state the measured EC50 obtained for "CCCN(CCO)C(=O)C1=Cc2ccc(C3(C(=O)Nc4cnc5c(c4)CN(C(=O)[C@H](CCCNC(N)=O)NC(=O)[C@@H](N)C(C)C)CC5)CC3)cc2N=C(N)C1" with TLR8 (Homo sapiens).
## Result < 250 nM

## Task Kindly state the measured EC50 obtained for "CCCN(CCC)C(=O)C1=Cc2c(F)cc(C3(C(=O)Nc4cnc5c(c4)CNCC5)CC3)cc2N=C(N)C1" with TLR8 (Homo sapiens).
## Result < 250 nM

## Task Kindly state the measured EC50 obtained for CCCN(CCO)C(=O)C1=Cc2ccc(C3(C(=O)Nc4cnc5c(c4)CN(C(=O)C4COC(CN6C(=O)C=CC6=O)OC4)CC5)CC3)cc2N=C(N)C1 (single isomer, unassigned) with TLR8 (Homo sapiens).
## Result 250 to 1000 nM

## Task Kindly state the measured EC50 obtained for "CCCN(CCO)C(=O)C1=Cc2ccc(C3(C(=O)NCc4cccc(N)c4)CC3)cc2N=C(N)C1" with TLR8 (Homo sapiens).
## Result < 250 nM

## Task Kindly state the measured EC50 obtained for CCCN(CCO)C(=O)C1=Cc2ccc(C3(C(=O)Nc4cnc5c(c4)CN(C(=O)OCc4ccc(NC(=O)[C@H](CCCNC(N)=O)NC(=O)[C@@H](NC(=O)C6COC(CN7C(=O)C=CC7=O)OC6)C(C)C)cc4)CC5)CC3)cc2N=C(N)C1 (stereo partly shown) with TLR8 (Homo sapiens).
## Result 250 to 1000 nM

## Task Kindly state the measured EC50 obtained for "CCCN(CCO)C(=O)C1=Cc2ccc(C3(C(=O)Nc4cnc5c(c4)CN(C(=O)CCOCCOCCNC(=O)CN4C(=O)C=CC4=O)CC5)CC3)cc2N=C(N)C1" with TLR8 (Homo sapiens).
## Result < 250 nM
